target: DLG1_2, Q12959; test: holdup assay; design: key: below the threshold = too weak to quantify, mostly under pKd 3.1 to 4; details: plain residues with an end cap or a label only (N-terminal biotin on a linker: ttds)
Sequence (Q12959 314-412): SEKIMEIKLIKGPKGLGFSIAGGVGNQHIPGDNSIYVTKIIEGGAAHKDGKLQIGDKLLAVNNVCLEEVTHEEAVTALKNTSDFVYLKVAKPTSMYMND
// reported pKd per item
Please state the value as a number alone, without comment.

Worked examples, 5 binders total:
Binder | pKd
SRSRRRETAL [HPV33-E6, P06427] | 5.14
SGGKRKETLV [NET1, Q7Z628] | 5.78
GARVSKETPL [MAPK12, P53778] | 4.71
PPRQRSETQV [HPV82-E6, Q9IR59] | 5.02
GRLLGLETNV [ARHGEF26, Q96DR7] | 5.18

Data request: Looking for the measured pKd of SHSSKGETAV [FZD7, O75084] , can you help?
Data returned: 4.78

Data request: Looking for the measured pKd of NPDALPETLV [ARHGAP6, O43182] , can you help?
Data returned: 4.49

FYI, the data here is from paper PMC9482650.
